These entries and their values trace back to patent US20180099961A1.

Experimental details: Pharmacokinetics in Sprague-Dawley rats, 2-in-1 dosing
Assay type: in vivo
Details: Sprague-Dawley, rat, plasma, po, 2.5 mg/kg, PO 2.5 mg/kg, single dose, plasma (Table 2)
Protocol: Sprague-Dawley rats (approximate weight 275-300 g, N=3) were dosed intravenously at 5 mL/kg and orally at 10 mL/kg with the above dosing solutions. Blood samples were collected into tubes containing EDTA as the anticoagulant at 0, 0.25 (intravenous only), 0.5, 1, 2, 4, 8, 10, and 24 h post-dosing, and plasma samples were prepared by centrifugation. […]
Result type: AUC(0-t)

Solved cases (3 shown):
>>> result("Cc1nc(Nc2ncc(C(=O)Nc3c(C)cccc3Cl)s2)cc(N2CCN(CCO)CC2)n1 [Dasatinib, reference compound]")
"193 ng·h/mL"
>>> result("[2H]c1cc(C)c(NC(=O)c2cnc(Nc3cc(N4CCN(CCO)CC4)nc(C)n3)s2)c(Cl)c1")
"139 ng·h/mL"
>>> result("[2H]c1cc(C)c(NC(=O)c2cnc(Nc3cc(N4CC[C@@H](O)C4)nc(C)n3)s2)c(Cl)c1")
"524 ng·h/mL"

As a next step, examine the molecule that follows.
Prompt line: Return reported AUC(0-t); argument: [2H]c1cc(C)c(NC(=O)c2cnc(Nc3cc(N4CC[C@H](O)C4)nc(C)n3)s2)c(Cl)c1
Response line: 891 ng·h/mL

###

Experimental details: Pharmacokinetics in Sprague-Dawley rats, 2-in-1 dosing
Format: in vivo
Details: Sprague-Dawley, rat, plasma, po, 5 mg/kg, PO 5 mg/kg, single dose, plasma (Table 3)
Form field: AUC(0-t) (one value per entry).
Express your answer in ng·h/mL, writing the number without its unit.

Solved cases (3 shown):
>>> numeric_value("Cc1nc(Nc2ncc(C(=O)Nc3c(C)cccc3Cl)s2)cc(N2CC[C@@H](O)C2)n1")
1420
>>> numeric_value("Cc1nc(Nc2ncc(C(=O)Nc3c(C)cccc3Cl)s2)cc(N2CCN(CCO)CC2)n1 [Dasatinib, reference compound]")
93
>>> numeric_value("Cc1nc(Nc2ncc(C(=O)Nc3c(C)cccc3Cl)s2)cc(N2CC[C@H](O)C2)n1")
1120

Prompt line: Return reported AUC(0-t); argument: [2H]c1cc(C)c(NC(=O)c2cnc(Nc3cc(N4CCN(CCO)CC4)nc(C)n3)s2)c(Cl)c1
Response line: 124

###

Experimental details: Pharmacokinetics in Sprague-Dawley rats, 2-in-1 dosing
Type: in vivo
Details: Sprague-Dawley, rat, plasma, po, 2.5 mg/kg, PO 2.5 mg/kg, single dose, plasma (Table 2); read-out: t1/2 (converted)
Form field: half-life (one value per entry).
Express your answer in min, writing the number without its unit.

Solved cases (3 shown):
>>> numeric_value("[2H]c1cc(C)c(NC(=O)c2cnc(Nc3cc(N4CCN(CCO)CC4)nc(C)n3)s2)c(Cl)c1 [Compound III]")
282
>>> numeric_value("[2H]c1cc(C)c(NC(=O)c2cnc(Nc3cc(N4CC[C@@H](O)C4)nc(C)n3)s2)c(Cl)c1 [Compound V]")
264
>>> numeric_value("[2H]c1cc(C)c(NC(=O)c2cnc(Nc3cc(N4CC[C@H](O)C4)nc(C)n3)s2)c(Cl)c1 [Compound IV]")
138

As a next step, examine the molecule that follows.
Prompt line: Return reported half-life; argument: Cc1nc(Nc2ncc(C(=O)Nc3c(C)cccc3Cl)s2)cc(N2CCN(CCO)CC2)n1 [Dasatinib, reference compound]
Response line: 210

###

Experimental details: Pharmacokinetics in Sprague-Dawley rats, 2-in-1 dosing
Type: in vivo
Details: Sprague-Dawley, rat, plasma, iv, 1 mg/kg, intravenous 1 mg/kg, single dose, plasma (Table 3)
Form field: AUC(0-t) (one value per entry).
Express your answer in ng·h/mL, writing the number without its unit.

>>> numeric_value("Cc1nc(Nc2ncc(C(=O)Nc3c(C)cccc3Cl)s2)cc(N2CC[C@@H](O)C2)n1")
2480
>>> numeric_value("Cc1nc(Nc2ncc(C(=O)Nc3c(C)cccc3Cl)s2)cc(N2CC[C@H](O)C2)n1")
2520
>>> numeric_value("[2H]c1cc(C)c(NC(=O)c2cnc(Nc3cc(N4CCN(CCO)CC4)nc(C)n3)s2)c(Cl)c1")
916

Prompt line: Return reported AUC(0-t); argument: Cc1nc(Nc2ncc(C(=O)Nc3c(C)cccc3Cl)s2)cc(N2CCN(CCO)CC2)n1 [Dasatinib, reference compound]
Response line: 1010

###

Form field: AUC(0-inf) (one value per entry).
Experimental details: Pharmacokinetics in Sprague-Dawley rats, 2-in-1 dosing
Format: in vivo
Details: Sprague-Dawley, rat, plasma, po, 5 mg/kg, PO 5 mg/kg, single dose, plasma (Table 3)
Express your answer in ng·h/mL, writing the number without its unit.

>>> numeric_value("Cc1nc(Nc2ncc(C(=O)Nc3c(C)cccc3Cl)s2)cc(N2CC[C@@H](O)C2)n1")
1500

Prompt line: Return reported AUC(0-inf); argument: Cc1nc(Nc2ncc(C(=O)Nc3c(C)cccc3Cl)s2)cc(N2CCN(CCO)CC2)n1 [Dasatinib, reference compound]
Response line: 97

Prompt line: Return reported AUC(0-inf); argument: Cc1nc(Nc2ncc(C(=O)Nc3c(C)cccc3Cl)s2)cc(N2CC[C@H](O)C2)n1
Response line: 1200

Prompt line: Return reported AUC(0-inf); argument: [2H]c1cc(C)c(NC(=O)c2cnc(Nc3cc(N4CCN(CCO)CC4)nc(C)n3)s2)c(Cl)c1
Response line: 137

###

Assay system: PIK3CA/PIK3R1 (Homo sapiens, UniProt P42336)
Sequence (P42336 whole entry): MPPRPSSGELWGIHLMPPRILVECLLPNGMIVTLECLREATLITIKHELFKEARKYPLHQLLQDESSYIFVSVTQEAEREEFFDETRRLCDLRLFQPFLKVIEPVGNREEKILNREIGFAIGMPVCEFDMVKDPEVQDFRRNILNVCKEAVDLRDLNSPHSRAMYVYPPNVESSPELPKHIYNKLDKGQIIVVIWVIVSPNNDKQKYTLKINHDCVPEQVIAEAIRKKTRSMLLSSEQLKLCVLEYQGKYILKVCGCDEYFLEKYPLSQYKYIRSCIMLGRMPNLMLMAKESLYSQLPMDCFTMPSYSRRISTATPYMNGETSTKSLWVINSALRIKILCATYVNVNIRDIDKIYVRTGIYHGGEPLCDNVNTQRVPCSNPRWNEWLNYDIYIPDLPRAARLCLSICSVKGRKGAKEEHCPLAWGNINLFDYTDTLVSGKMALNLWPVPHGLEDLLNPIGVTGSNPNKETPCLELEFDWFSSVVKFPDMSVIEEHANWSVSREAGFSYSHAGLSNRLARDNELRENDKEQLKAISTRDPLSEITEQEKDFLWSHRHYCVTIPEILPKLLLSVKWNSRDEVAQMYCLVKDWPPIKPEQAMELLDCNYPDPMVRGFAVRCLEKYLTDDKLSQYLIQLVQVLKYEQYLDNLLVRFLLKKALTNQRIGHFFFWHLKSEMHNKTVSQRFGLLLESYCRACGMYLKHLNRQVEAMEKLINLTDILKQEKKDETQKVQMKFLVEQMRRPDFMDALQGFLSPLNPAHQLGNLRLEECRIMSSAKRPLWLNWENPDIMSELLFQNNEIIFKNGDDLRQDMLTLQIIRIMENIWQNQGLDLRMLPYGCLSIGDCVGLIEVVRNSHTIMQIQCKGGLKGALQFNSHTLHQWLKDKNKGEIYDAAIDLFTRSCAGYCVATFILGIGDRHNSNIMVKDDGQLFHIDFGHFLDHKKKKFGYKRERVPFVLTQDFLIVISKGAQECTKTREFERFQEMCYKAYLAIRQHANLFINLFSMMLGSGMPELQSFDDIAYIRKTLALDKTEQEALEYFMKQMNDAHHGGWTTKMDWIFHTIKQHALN
Sequence (P27986 whole entry partner): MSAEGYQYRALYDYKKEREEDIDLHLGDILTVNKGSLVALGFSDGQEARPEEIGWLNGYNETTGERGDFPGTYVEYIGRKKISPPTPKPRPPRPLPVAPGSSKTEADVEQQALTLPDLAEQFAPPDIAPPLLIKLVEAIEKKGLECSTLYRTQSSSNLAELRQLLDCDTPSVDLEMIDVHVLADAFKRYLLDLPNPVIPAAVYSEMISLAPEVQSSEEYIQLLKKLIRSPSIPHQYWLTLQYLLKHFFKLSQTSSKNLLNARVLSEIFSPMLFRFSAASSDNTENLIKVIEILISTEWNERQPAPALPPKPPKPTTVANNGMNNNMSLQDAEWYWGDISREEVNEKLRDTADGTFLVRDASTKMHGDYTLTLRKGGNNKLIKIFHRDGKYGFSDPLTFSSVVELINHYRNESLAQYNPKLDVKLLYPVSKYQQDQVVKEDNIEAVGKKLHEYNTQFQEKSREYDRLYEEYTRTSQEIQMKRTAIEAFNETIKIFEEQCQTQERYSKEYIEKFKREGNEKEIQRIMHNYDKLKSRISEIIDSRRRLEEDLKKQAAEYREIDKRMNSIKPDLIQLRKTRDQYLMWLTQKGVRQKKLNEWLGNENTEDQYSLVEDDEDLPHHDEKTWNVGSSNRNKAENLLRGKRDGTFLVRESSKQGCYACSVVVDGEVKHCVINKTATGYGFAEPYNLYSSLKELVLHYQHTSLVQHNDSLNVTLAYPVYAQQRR
Experimental details: Off-chip Mobility Shift Assay
Details: read-out: IC50, recombinant PIK3CA/PIK3R1 activity
Result type: IC50

Prompt line: Any idea what IC50 came out for [2H]c1cc(C)c(NC(=O)c2cnc(Nc3cc(N4CCCCC4)nc(C)n3)s2)c(Cl)c1 on PIK3CA/PIK3R1 (Homo sapiens, UniProt P42336)?
Response line: ~12 nM

###

Assay system: PDGFRα (Homo sapiens, UniProt P16234)
Sequence (P16234 24-1089): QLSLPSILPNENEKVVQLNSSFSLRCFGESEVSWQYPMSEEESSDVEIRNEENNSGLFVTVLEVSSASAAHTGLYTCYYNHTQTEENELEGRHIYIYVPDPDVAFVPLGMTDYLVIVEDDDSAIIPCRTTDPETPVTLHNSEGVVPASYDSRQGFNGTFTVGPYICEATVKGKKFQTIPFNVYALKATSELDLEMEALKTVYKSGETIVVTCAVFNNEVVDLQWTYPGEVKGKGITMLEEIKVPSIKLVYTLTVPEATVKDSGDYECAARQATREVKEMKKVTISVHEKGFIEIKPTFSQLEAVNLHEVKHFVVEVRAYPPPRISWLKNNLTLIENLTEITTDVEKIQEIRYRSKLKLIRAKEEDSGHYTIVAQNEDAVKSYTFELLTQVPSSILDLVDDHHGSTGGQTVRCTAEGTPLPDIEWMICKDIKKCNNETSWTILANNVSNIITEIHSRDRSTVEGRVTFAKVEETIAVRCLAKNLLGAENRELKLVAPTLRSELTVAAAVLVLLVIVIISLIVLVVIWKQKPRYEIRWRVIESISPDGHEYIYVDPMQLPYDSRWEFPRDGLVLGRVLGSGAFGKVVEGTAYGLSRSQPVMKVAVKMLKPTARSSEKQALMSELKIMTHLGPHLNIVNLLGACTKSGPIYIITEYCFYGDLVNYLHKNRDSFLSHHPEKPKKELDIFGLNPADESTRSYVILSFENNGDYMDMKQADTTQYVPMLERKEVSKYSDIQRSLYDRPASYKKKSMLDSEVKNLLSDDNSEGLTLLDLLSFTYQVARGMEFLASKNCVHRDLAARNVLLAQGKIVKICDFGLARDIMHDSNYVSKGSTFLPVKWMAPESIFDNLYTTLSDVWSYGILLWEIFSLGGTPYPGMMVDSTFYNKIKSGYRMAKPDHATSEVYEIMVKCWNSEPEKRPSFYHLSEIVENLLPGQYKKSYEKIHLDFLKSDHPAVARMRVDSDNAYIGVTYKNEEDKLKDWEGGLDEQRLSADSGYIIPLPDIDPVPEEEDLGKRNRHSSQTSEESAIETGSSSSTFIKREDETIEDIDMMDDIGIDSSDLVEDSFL
Experimental details: Off-chip Mobility Shift Assay
Details: read-out: IC50, recombinant PDGFRα activity
pIC50: −log10 of the molar value.
Result type: pIC50

Prompt line: Return reported pIC50; argument: [2H]c1cc(C)c(NC(=O)c2cnc(Nc3cc(N4CCCCC4)nc(C)n3)s2)c(Cl)c1
Response line: ~8.85

###

Experimental details: Pharmacokinetics in Sprague-Dawley rats, 2-in-1 dosing
Assay type: in vivo
Details: Sprague-Dawley, rat, plasma, iv, 1 mg/kg, intravenous 1 mg/kg, single dose, plasma (Table 2)
Form field: AUC(0-t) (one value per entry).

Solved cases (3 shown):
>>> result("[2H]c1cc(C)c(NC(=O)c2cnc(Nc3cc(N4CCN(CCO)CC4)nc(C)n3)s2)c(Cl)c1")
"0.835 µg·h/mL"
>>> result("[2H]c1cc(C)c(NC(=O)c2cnc(Nc3cc(N4CC[C@@H](O)C4)nc(C)n3)s2)c(Cl)c1")
"1.96 µg·h/mL"
>>> result("Cc1nc(Nc2ncc(C(=O)Nc3c(C)cccc3Cl)s2)cc(N2CCN(CCO)CC2)n1 [Dasatinib, reference compound]")
"0.783 µg·h/mL"

Prompt line: Return reported AUC(0-t); argument: [2H]c1cc(C)c(NC(=O)c2cnc(Nc3cc(N4CC[C@H](O)C4)nc(C)n3)s2)c(Cl)c1
Response line: 1.88 µg·h/mL

###

Experimental details: Pharmacokinetics in Sprague-Dawley rats, 2-in-1 dosing
Assay type: in vivo
Details: Sprague-Dawley rats, intravenous
Result type: intravenous volume of distribution compared to dasatinib and compound III

>>> result("Cc1nc(Nc2ncc(C(=O)Nc3c(C)cccc3Cl)s2)cc(N2CC[C@@H](O)C2)n1")
"significantly lower"
>>> result("[2H]c1cc(C)c(NC(=O)c2cnc(Nc3cc(N4CC[C@@H](O)C4)nc(C)n3)s2)c(Cl)c1")
"significantly lower"
>>> result("[2H]c1cc(C)c(NC(=O)c2cnc(Nc3cc(N4CC[C@H](O)C4)nc(C)n3)s2)c(Cl)c1")
"significantly lower"
>>> result("Cc1nc(Nc2ncc(C(=O)Nc3c(C)cccc3Cl)s2)cc(N2CC[C@H](O)C2)n1")
"significantly lower"

###

Assay system: BTK (Homo sapiens, UniProt Q06187)
Sequence (Q06187 whole entry): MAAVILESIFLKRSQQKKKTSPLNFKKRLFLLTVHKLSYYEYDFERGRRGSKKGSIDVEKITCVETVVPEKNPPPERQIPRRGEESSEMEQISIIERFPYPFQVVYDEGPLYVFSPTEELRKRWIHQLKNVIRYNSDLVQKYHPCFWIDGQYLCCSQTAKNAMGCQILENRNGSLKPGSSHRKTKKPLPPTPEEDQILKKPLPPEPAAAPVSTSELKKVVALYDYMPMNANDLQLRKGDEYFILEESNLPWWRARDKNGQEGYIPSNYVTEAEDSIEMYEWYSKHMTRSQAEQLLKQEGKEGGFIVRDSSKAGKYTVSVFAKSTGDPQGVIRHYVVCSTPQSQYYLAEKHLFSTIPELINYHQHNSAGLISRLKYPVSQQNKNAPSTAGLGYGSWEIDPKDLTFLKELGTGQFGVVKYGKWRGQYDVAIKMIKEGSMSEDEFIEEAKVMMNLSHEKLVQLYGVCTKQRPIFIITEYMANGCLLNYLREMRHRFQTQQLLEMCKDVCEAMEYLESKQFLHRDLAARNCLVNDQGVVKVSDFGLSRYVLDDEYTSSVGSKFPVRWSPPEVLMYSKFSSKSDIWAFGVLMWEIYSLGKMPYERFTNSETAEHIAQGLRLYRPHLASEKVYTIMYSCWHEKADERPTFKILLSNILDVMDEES
Experimental details: Off-chip Mobility Shift Assay
Details: read-out: IC50, recombinant BTK activity
pIC50: −log10 of the molar value.
Form field: pIC50 (one value per entry).

Solved cases (3 shown):
>>> result("Cc1nc(Nc2ncc(C(=O)Nc3c(C)cccc3Cl)s2)cc(N2CC[C@H](O)C2)n1")
"> 9.00"
>>> result("[2H]c1cc(C)c(NC(=O)c2cnc(Nc3cc(N4CCCCC4)nc(C)n3)s2)c(Cl)c1")
"~9.70"
>>> result("[2H]c1cc(C)c(NC(=O)c2cnc(Nc3cc(N4CCC(O)CC4)nc(C)n3)s2)c(Cl)c1")
"> 9.00"

As a next step, examine the compound that follows.
Prompt line: Return reported pIC50; argument: Cc1nc(Nc2ncc(C(=O)Nc3c(C)cccc3Cl)s2)cc(N2CC[C@@H](O)C2)n1
Response line: > 9.00
